Recorded % Inhibition of cell adhesion, n = 2 (K562 on full length FN, supernatant 1 in 4) for the following binders
biological target: human α5β1 integrin (human, UniProt P08648 42-1049; P05556 21-798); test: cell-based or functional assay
Sequence (P08648 42-1049, chain 1 of 2): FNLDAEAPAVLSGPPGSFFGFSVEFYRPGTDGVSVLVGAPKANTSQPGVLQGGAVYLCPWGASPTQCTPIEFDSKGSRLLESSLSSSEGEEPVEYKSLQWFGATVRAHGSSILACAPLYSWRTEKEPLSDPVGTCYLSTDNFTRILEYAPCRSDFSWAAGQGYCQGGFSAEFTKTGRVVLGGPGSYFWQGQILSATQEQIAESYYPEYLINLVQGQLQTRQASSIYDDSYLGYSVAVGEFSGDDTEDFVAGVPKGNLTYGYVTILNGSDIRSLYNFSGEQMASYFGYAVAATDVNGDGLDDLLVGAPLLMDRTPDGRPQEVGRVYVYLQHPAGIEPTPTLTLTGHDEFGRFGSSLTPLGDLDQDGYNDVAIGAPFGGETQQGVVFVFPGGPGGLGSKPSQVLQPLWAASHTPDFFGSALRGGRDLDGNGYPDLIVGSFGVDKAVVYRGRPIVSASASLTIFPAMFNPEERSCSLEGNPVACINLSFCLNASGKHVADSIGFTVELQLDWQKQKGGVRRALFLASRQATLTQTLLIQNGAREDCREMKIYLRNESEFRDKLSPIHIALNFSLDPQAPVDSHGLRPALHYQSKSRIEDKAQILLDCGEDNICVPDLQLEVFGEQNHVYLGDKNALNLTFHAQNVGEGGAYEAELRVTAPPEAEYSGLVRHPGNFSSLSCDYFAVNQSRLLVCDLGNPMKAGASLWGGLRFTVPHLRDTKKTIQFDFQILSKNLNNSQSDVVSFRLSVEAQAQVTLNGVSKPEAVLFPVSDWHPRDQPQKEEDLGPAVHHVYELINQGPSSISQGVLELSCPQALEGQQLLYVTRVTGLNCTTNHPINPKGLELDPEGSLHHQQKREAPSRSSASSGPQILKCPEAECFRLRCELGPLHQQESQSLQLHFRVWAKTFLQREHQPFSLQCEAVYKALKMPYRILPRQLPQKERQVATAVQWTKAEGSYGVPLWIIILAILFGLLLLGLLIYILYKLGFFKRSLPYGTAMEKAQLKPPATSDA
Sequence (P05556 21-798, chain 2 of 2): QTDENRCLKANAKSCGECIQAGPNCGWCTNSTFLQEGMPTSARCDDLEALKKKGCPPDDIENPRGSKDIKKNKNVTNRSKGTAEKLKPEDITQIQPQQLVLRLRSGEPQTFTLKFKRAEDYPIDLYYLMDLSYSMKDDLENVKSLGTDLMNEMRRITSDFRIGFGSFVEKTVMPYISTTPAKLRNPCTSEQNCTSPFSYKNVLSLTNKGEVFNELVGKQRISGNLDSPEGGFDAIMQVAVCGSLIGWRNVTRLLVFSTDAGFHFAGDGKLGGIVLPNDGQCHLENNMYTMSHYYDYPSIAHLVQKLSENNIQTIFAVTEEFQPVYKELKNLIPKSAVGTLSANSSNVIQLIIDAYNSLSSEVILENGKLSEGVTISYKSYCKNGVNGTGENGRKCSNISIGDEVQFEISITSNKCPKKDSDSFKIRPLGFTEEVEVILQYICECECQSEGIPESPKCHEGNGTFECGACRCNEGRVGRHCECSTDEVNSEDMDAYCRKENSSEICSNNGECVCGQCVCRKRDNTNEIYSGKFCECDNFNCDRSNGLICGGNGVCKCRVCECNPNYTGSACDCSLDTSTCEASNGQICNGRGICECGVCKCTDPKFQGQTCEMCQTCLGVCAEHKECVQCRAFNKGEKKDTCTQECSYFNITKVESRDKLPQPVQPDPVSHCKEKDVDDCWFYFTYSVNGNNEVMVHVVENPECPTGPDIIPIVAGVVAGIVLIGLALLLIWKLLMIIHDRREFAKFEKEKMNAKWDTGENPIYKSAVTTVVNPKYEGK
property: % Inhibition of cell adhesion, n = 2 (K562 on full length FN, supernatant 1 in 4) (%)

INSERT INTO results (binder, unit_info, meas_value) VALUES
  ('3F12.4A1 (antibody, IgG2, V domains shown, Isotype IgG2/k) VH: QVQLVESGGGVVQPGRSLRLSCAASGFTFSSYGMHWVRQAPGKGLEWVAVIWYDGTNKYYADSVKGRFTISRDNSKNTLYLQMNSLTAEDTAVYYCARDMAARRGDYYYYYGMDVWGPGTTVTVSS VL: DIVMTQSPLSLPVTPGEPASISCRSSQSLLNGIGYNFLDWYLQKPGQSPQLLIYLGSNRASGVPDRFSGSGSGTDFTLTISRVEAEDVGVYYCMHALQTPFTFGPGTKVDIK', '%', 100),
  ('4G3.3D11 (antibody, IgG4, V domains shown, Isotype IgG4/k) VH: QVQLVESGGGVVQPGRSLRLSCAASGFIFSSYGMHWVRQAPGKGLEWVAVIWYDGTNKYYADSVKGRFTISRDNSKNTLYLQMNSLRAEDTAVYYCARDGAARRGDYYYYYGMDVWGQGTTVTVSS VL: DIVMTQSPLSLPVTPGEPASISCRSSQSLLHGTGYSSLDWYLQKPGQSPQLLIYLGSNRASGVPDRFSGSGSGTDFTLKISRVEAEDVGVYFCMQALQTPFTFGPGTKVDIK', '%', 99),
  ('2G2.2B5 (antibody, IgG4, V domains shown, Isotype IgG4/k) VH: QVQLVESGGGVVQPGRSLRLSCAASGFTFSSYGMHWVRQAPGKGLEWVAVIWYDGSNKYYADSVKGRFTISRDNSKNTLYLQMNSLRAEDTAVYYCARDGAARRGDYYYYYGMDVWGQGTTVTVSS VL: EIVMTQSPLSLPVTPGEPASISCRSGQSLLQSTGSNYLAWYLQKPGQSPQLLIYLGSNRASGVPDRFSGSGSGTDFTLKISRVEAEDVGVYYCMQALQTPFTFGPGTKVDIK', '%', 102),
  ('2H12 (antibody, IgG4, V domains shown, Identified as an IgG4/k antibody; also called MAb 2H12; 2H12 IgG4) VH: QVQLVESGGGVVQPGRSLRLSCAASGFTFSSYGMHWVRQAPGKGLEWVAVIWYDGTNKYYADSVKGRFTISRDNSKTTLYLQMNSLRAEDTAVYYCARDGAARRGDYYYYYGMDVWGQGTTVTVSS VL: DIVMTQSPLSLPVTPGEPASISCRSSQSLLRGHGYSYLDWYLQKPGQSPQLLIYLGSNRASGVPDRFSGSGSGTDFTLKISRVEAEDVGVYYCMQALQTPFTFGPGTKVDIK', '%', 100);

This collection of values is drawn from patent US20120107324A1.
